assay: NCI Yeast Anticancer Drug Screen. Data for the rad50 strain (AID 155);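 further: 0% = growth of vehicle-only cultures of the same strain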; settings: S. cerevisiae rad50 strain growth inhibition; at 50.0 µM; hits give high values
Compounds without any hit were thinned out: in the full panel of roughly 79,000, 15% have a hit. Activity calls are given as the source filed them. No stated cut-off is given here; in the data, active means growth inhibition above about 70%; inactive means the rest.
The reader will find reported growth inhibition values listed item by item below.

Below: 3 molecules and their reported growth inhibition.
I am curious: what growth inhibition value has been reported for `Clc1cc(Cl)c2ccc3c(Cl)cc(Cl)c4ccc1c2c43` ?
-18.6% (inactive)

Which growth inhibition value belongs to `c1ccc(Cc2ncc(-c3ccccc3)cc2-c2ccccc2)cc1` ?
-19.4% (inactive)

Reported growth inhibition, molecule `O=C(CN1CCCC1=O)CS(=O)(=O)c1ccccc1` : ____
-14.5% (inactive)

Further cases:
Endpoint output: growth inhibition of `Cc1noc(C)c1N=Nc1ccc2nonc2c1N` . Value?
-15.5% (inactive)

Request the reported growth inhibition associated with OCC1CCN(CCOCc2ccccc2)C1 (configuration not stated)
9.25% (inactive)

Dear colleague, I am looking for the recorded growth inhibition of the following molecule: CCOC(O)(NC(=O)C(C(F)(F)F)C(F)(F)F)C(F)(F)F (configuration not stated)
6.05% (inactive)

* * *

# growth inhibition per entry
assay: NCI Yeast Anticancer Drug Screen. Data for the cln2 rad14 strain (AID 165);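 further: 0% = growth equal to vehicle treated cultures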; conditions: S. cerevisiae cln2 rad14 strain, at 50.0 µM, hits give high values
This is part of a sample that, as a whole, favours compounds with a hit. Of some 79,000 tested, about 15% had one in any assay.
State the answer as a number, implicitly in %.

Solved entries (count: 5):
# query: growth inhibition of entry O=C1NC(=O)C(c2ccc(Cl)cc2)N1 (configuration not stated)
-5.3

Which growth inhibition is reported for this compound? C=C1C2CCC3(CCC4C5(C)CCCC4(CN(CCO)C5)C3C2)C1O (configuration not stated)
12.8

Requested field: growth inhibition. Item: Nc1ncnc2c1nnn2C1C=CC(COS(N)(=O)=O)C1 (configuration not stated)
-6

Could you tell me which growth inhibition is on file for N#CCCN1C(=O)C2(CCC#N)CCCCC2(O)N=C1c1ccccc1 (configuration not stated) ?
-0.5

Any idea what its growth inhibition is? The compound is `COc1cc([C@H]2c3[nH]c4ccccc4c3C[C@H]3COC(=O)N32)cc(OC)c1O`
12.1

***
Look at this compound and give its reported growth inhibition. `O=C(CCC(=O)Oc1ccccc1)Oc1ccccc1`
3.2

Recorded growth inhibition of `O=C1OCc2c[n+]([O-])ccc21` , please.
-30.2

Name the recorded growth inhibition for `CN(C)CCSCC(=O)N1c2ccccc2Sc2ccccc21` .
-41.2

Entry under review: `COc1cc2nc(C)oc(=O)c2cc1OC` . Reported growth inhibition?
-28.4

Data request, read-out growth inhibition, for CCCCCC(CSCC)C(=O)/C=C/c1ccccc1 (configuration not stated)
-1.55

Can you share its growth inhibition? I mean this compound: `Cc1cccc(C2=N/C(=C\c3c(O)ccc4ccccc34)C2=O)c1`
6.55

Value lookup for growth inhibition; key = `Cc1c(/C=N/O)nc2ccccc2c1C(=O)O`
-24.1

* * *

compounds and their reported growth inhibition
experiment: NCI Yeast Anticancer Drug Screen. Data for the rad50 strain (AID 155);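 further: 0% = growth of vehicle-only cultures of the same strain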; settings: S. cerevisiae rad50 strain growth inhibition; at 50.0 µM; hits give high values
The panel holds about 79,000 compounds, 15% with a hit somewhere; the sample as a whole holds those more often.
API: value field is a number in %; no unit string.

Example compounds with recorded growth inhibition:
// lookup growth inhibition for `O=C(O)/C(=C/C=C/c1ccccc1)c1csc(-c2nc(/C(=C\C=C\c3ccccc3)C(=O)O)cs2)n1`
22

Item under review: CCC(OC(C)=O)c1ccccc1 (configuration not stated) . Reported growth inhibition?
12.8

Need growth inhibition, item `CCN(CCO)CC(=O)c1ccc(Cl)c(Cl)c1`
0.2

Suppose we examine the compound `CN1CCN(c2nc3c(c(=O)n(C)c(=O)n3C)n2C)CC1` ; what growth inhibition value has been reported?
-4.9

Query (compound): `COc1ccccc1CNCc1nc2ccccc2[nH]1` ; field requested: growth inhibition
4.8

Next:
Using the record for Cc1nn(C(=O)c2ccc(Cl)cc2)c2c1C(c1ccc(O)cc1)SC(N)=N2 (configuration not stated) , report its growth inhibition.
-33
